Reference source for all entries: patent US12421249B2

experimentalTarget: APOL1 (Homo sapiens)
Sequence (O14791 1-398 S342G/I384M): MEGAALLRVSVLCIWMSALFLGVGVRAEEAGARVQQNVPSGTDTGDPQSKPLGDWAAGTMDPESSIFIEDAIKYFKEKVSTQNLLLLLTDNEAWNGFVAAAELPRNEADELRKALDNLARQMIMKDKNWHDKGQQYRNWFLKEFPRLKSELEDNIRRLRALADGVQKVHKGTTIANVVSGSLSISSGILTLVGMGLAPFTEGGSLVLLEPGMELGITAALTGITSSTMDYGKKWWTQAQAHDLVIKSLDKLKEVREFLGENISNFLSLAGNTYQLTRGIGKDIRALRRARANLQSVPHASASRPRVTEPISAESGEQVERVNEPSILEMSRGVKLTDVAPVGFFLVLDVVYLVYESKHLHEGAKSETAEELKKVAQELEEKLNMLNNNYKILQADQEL
test: Multi-Tox Assay (MultiTox-Fluor Multiplex Cytotoxicity Assay in tet-inducible APOL1 T-REx-HEK293 cells; Table 46 does not say which APOL1 variant G0/G1/G2)
Type: cell-based
conditionInfo: APOL1 variant not given
Provide the recorded Multi-Tox Assay Max Activity (%) for the entries that follow.
Hi! Could you send only the number? It should be in %, unit omitted.

Identify measured Multi-Tox Assay Max Activity (%) associated with COc1ccc(C(O)Cn2cc([C@@H]3C[C@]4(C[C@H](C)N3)OCC(F)(F)c3cc(Cl)sc34)nn2)cc1 (stereo partly shown) [Compound 348]
97.0

Identify measured Multi-Tox Assay Max Activity (%) associated with Cc1ncc(Cn2cc([C@@H]3C[C@]4(C[C@H](C)N3)OC[C@@H](O)c3cc(Cl)sc34)nn2)cn1 [Compound 277]
100.0

Identify measured Multi-Tox Assay Max Activity (%) associated with Cc1ccc([C@@H]2C[C@]3(C[C@H](C)N2)OCCc2cc(Cl)sc23)cn1 (racemic) [Compound 55]
99.7

Identify measured Multi-Tox Assay Max Activity (%) associated with CC1CC2(CC(c3cnn(CCS(C)(=O)=O)c3)N1)OCCc1sc(C(F)(F)F)cc12 (stereo not shown) [Compound 9]
100.0

Identify measured Multi-Tox Assay Max Activity (%) associated with C[C@H]1CC2(CC(c3cnn(C)c3)N1)OCC(O)c1cc(Cl)sc12 (single isomer, unassigned) [Compound 176]
100.0

Identify measured Multi-Tox Assay Max Activity (%) associated with C[C@H]1C[C@@]2(C[C@@H](c3cn(CC4CCC4)nn3)N1)OC[C@@H](O)c1cc(Cl)sc12 [Compound 250]
95.0

Identify measured Multi-Tox Assay Max Activity (%) associated with CC(CO)CCn1cc([C@@H]2C[C@]3(C[C@H](C)N2)OCC(F)(F)c2cc(Cl)sc23)nn1 (stereo partly shown) [Compound 306]
99.0
